- System: P388 leukemia ip, CD2F1 mice, survival T/C
- test.protocol: NCI In Vivo Anticancer Drug Screen. Data for tumor model P388 Leukemia (intraperitoneal) in CD2F1 (CDF1) mice
- condition.context: endpoint: median survival time; dose: 100.0 mg/kg/injection; schedule: Q01DX009 (ip); vehicle: saline; higher = longer survival
Toxic doses and inconclusive results are not listed. Square brackets hold non-standard residues; d marks the D form. Peptide text beside a SMILES is read from it. ξ: configuration not given here. ξN = NC(=O)CC(N)C(=O)O
test.readout: T/C

>>> recorded_measurement("CCC(=O)NC(CC(=O)O)c1cccs1 (stereo unspecified)")
"90 % of control"
>>> recorded_measurement("CN(c1ccccc1)c1cc2nc3ccccc3nc2cc1O")
"91 % of control"
>>> recorded_measurement("OCC1C=Cc2ccccc21 (stereo unspecified)")
"107 % of control"
>>> recorded_measurement("NCC(=O)NC(CC(N)=O)C(=O)O (stereo unspecified) (H-Gly-[ξN]-OH)")
"109 % of control"
>>> recorded_measurement("C[N+](C)(C)CCCCCCN")
"97 % of control"
>>> recorded_measurement("N#CC1=C(C#N)SCCCS1")
"100 % of control"
>>> recorded_measurement("CCCSCN(CC)CC")
"90 % of control"
>>> recorded_measurement("COc1ccccc1N1C(=O)CSC1=Nc1ccccc1")
"96 % of control"
>>> recorded_measurement("CC(C)(O)c1ccc[n+]([O-])c1")
"107 % of control"
>>> recorded_measurement("Cc1ccc2[nH]c(=O)oc(=O)c2c1")
"96 % of control"
>>> recorded_measurement("CC1CCC(=O)N1C (stereo unspecified)")
"105 % of control"
>>> recorded_measurement("COc1ccc(CSC(=S)Nc2ccc(N=Nc3ccccc3)cc2)cc1")
"104 % of control"
>>> recorded_measurement("Cc1ccc2sc3ccccc3c(=O)c2c1")
"113 % of control"
>>> recorded_measurement("C=COC(=O)N(C)C")
"115 % of control"
>>> recorded_measurement("Cc1cc(C(=O)NN)no1")
"100 % of control"
>>> recorded_measurement("Cc1cc(CCO)n[nH]1")
"100 % of control"
>>> recorded_measurement("NC(CSCCCCl)C(=O)O (stereo unspecified)")
"95 % of control"
>>> recorded_measurement("COCCCN(Cc1cc(OC)c(OC)c(OC)c1)C(=S)Nc1cccc(SC)c1")
"100 % of control"
>>> recorded_measurement("Cc1ncn[nH]1")
"103 % of control"
>>> recorded_measurement("O=S(=O)(O)SCCN1CCOCC1")
"90 % of control"
>>> recorded_measurement("Clc1ccc(-c2nc(CSc3ccccn3)cs2)cc1")
"109 % of control"
>>> recorded_measurement("C=CCN(CC=C)Sc1cccc([N+](=O)[O-])c1")
"117 % of control"
>>> recorded_measurement("CCN(CC)CCOCCO")
"109 % of control"
>>> recorded_measurement("Cc1cccc(O)c1O")
"102 % of control"
>>> recorded_measurement("COCN(CCc1ccccc1)CCN(C)C")
"109 % of control"
>>> recorded_measurement("Nc1cc(=O)c2[nH]cnc2[nH]1")
"103 % of control"
>>> recorded_measurement("O=Nc1ccc(Cl)cc1C(=O)c1ccccc1")
"104 % of control"
>>> recorded_measurement("O=C(O)CC(CC(=O)N(CCP(c1ccccc1)c1ccccc1)CCP(c1ccccc1)c1ccccc1)C(=O)O (stereo unspecified) (tested in a mixture with another compound)")
"111 % of control"
>>> recorded_measurement("CCOC(=O)CC(=O)c1ccc(Cl)cc1")
"104 % of control"
>>> recorded_measurement("O=S1(=O)CCN(Cc2ccccn2)CC1")
"94 % of control"
>>> recorded_measurement("ClCC1OCCO1")
"116 % of control"
>>> recorded_measurement("Cc1ccc(N2C(=O)c3cccc4c(N)c(S(=O)(=O)O)cc(c34)C2=O)cc1")
"104 % of control"
>>> recorded_measurement("O=C(NC(COC1OC(CO)C(O)C(O)C1O)C(O)c1ccccc1)c1ccccc1 (stereo unspecified)")
"102 % of control"
>>> recorded_measurement("Cn1c(=O)c2c(ncn2CCSc2ncnc3nc[nH]c23)n(C)c1=O")
"105 % of control"
>>> recorded_measurement("C#CC[N+]12CN3CN(CN(C3)C1)C2")
"116 % of control"
>>> recorded_measurement("CCCC(=O)O")
"91 % of control"
>>> recorded_measurement("OCC[N-]CC[N-]CCO.[Cl][Co][Cl]")
"92 % of control"
>>> recorded_measurement("Cc1ccc(S(=O)(=O)C(Sc2ccccc2)=S=NC23CC4CC(CC(C4)C2)C3)cc1")
"108 % of control"
>>> recorded_measurement("CCN(CC)CCCCNc1ccc(NCCCCN(CC)CC)c2c1C(=O)c1ccccc1C2=O")
"100 % of control"
>>> recorded_measurement("O=C(O)c1ccc2c(=O)c(C(=O)O)c[nH]c2c1")
"96 % of control"
>>> recorded_measurement("Nc1ccc2c(c1)C1C(C3C2C2(Cl)C(Cl)=C(Cl)C3(Cl)C2(Cl)Cl)C2(Cl)C(Cl)=C(Cl)C1(Cl)C2(Cl)Cl (stereo unspecified)")
"100 % of control"

Data provenance: PubChem BioAssay AID330
